# testSystem: recombinant human MMP-3 catalytic domain (Homo sapiens, UniProt P08254)
# Sequence (P08254 100-272 limits assumed): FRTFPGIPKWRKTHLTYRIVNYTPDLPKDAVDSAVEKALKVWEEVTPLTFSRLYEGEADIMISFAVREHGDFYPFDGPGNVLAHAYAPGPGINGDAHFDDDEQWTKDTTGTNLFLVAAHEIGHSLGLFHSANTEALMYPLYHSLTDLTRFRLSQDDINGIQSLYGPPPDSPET
# measurementNotes: Recombinant MMP fluorescent assay, MMP-3
# runParameters: read-out: IC50 MMP-3; 1 hour preincubation at 37°C
quantityName: pIC50
Convention used: pIC50 is expressed as -log10 of the molar concentration.

Asked: Answer briefly: pIC50 recorded on recombinant human MMP-3 catalytic domain (Homo sapiens, UniProt P08254) for O=C(NCc1ccc(-c2ccccc2)cc1)c1cccc(=O)n1O
Given back: 6.25

====

# testSystem: recombinant human MMP-13 catalytic domain (Homo sapiens)
# measurementNotes: Recombinant MMP fluorescent assay, MMP-13
# runParameters: read-out: IC50 MMP-13; 1 hour preincubation at 37°C
quantityName: pIC50
Convention used: pIC50 is expressed as -log10 of the molar concentration.

Asked: Answer briefly: pIC50 recorded on recombinant human MMP-13 catalytic domain (Homo sapiens) for O=C(NCc1ccc(-c2ccccc2)cc1)c1cccc(=O)n1O
Given back: 5.39
